molecular target: T1, MET928 (cMET protein derived from construct 25-928) (human, UniProt P08581 25-928); test: ELISA, soluble scFv
T1 construct: MET ectodomain, residues 1-24 are the leader; produced in Lec 8 cells; background text says the ectodomain is furin-cleaved into alpha (25-307) and beta chains; biotinylated form used in selections; also called MET928 extracellular domain; Met extracellular domain
T1 sequence (P08581 25-928): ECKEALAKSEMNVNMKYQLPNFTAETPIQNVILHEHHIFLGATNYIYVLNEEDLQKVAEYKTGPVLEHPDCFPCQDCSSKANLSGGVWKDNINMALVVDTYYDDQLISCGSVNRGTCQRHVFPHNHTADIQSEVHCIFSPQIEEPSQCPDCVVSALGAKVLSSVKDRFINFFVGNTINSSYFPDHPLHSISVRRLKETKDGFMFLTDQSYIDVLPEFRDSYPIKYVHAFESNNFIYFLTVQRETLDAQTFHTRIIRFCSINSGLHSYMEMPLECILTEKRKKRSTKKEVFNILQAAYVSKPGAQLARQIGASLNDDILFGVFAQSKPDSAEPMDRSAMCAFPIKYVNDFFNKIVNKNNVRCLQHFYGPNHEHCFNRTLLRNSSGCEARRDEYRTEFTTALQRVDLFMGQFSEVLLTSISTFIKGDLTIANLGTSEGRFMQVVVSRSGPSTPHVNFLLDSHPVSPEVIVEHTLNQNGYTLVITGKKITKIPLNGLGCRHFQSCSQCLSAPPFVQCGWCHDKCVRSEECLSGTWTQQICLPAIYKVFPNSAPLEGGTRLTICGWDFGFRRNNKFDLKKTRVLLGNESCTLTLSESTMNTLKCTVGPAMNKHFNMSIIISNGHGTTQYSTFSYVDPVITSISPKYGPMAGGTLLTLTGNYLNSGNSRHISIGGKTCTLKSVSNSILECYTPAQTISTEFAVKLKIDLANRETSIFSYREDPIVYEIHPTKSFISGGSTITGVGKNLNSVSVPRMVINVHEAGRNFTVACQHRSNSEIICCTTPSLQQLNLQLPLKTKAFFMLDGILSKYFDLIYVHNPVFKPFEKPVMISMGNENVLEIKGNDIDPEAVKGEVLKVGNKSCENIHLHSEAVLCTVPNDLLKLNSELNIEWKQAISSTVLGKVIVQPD
measured_parameter: binding result

• 112_G5 (scFv, not shown: 6xHis/tri-FLAG tags) scFv: QMQLVQSGAEVKKPGAPVKVSCKVSGYTFTDYYMHWVQQAPGKGLEWMGLVDPEDGETIYAEKFQGRVTITADTSTDTAYMELSSLRSEDTAVYYCATDATTPYWGMRSWGQGTLVTVSSLEGGGGSGGGGSGGGASDIQMTQSPSSLSASVGDRVTITCQASQDISNYLNWYQQKPGRAPKVLIYDASNLETGVPSRFSGSGSGTEFTLTISNLRPDDFATYYCQQGDSFPLTFGGGTKVEIK = binds
• 110_A9 (scFv, not shown: 6xHis/tri-FLAG tags) scFv: QMQLVQSGAEVKKPGAPVKVSCKVSGYTFTDYYMHWVQQAPGKGLEWMGLVDPEDGETIYAEKFQGRVTITADTSTDTAYMELSSLRSEDTAVYYCATDATTPYWGMAGWGQGTLVTVSSLEGGGGSGGGGSGGGASDIQMTQSPSSLSASVGDRVTITCQASQDISNYLNWYQQKPGRAPKVLIYDASNLETGVPSRFSGSGSGTEFTLTISNLRPDDFATYYCQQGDSFPLTFGGGTKVEIK = binds
• 107_A4 (scFv, not shown: 6xHis/tri-FLAG tags) scFv: QMQLVQSGAEVKKPGAPVKVSCKVSGYTFTDYYMHWVQQAPGKGLEWMGLVDPEDGETIYAEKFQGRVTITADTSTDTAYMELSSLRSEDTAVYYCATDATTPYWFPYHWGQGTLVTVSSLEGGGGSGGGGSGGGASDIQMTQSPSSLSASVGDRVTITCQASQDISNYLNWYQQKPGRAPKVLIYDASNLETGVPSRFSGSGSGTEFTLTISNLRPDDFATYYCQQGDSFPLTFGGGTKVEIK = binds
